pIC50: −log10 of the molar value.
Literature survey of pIC50 (system: PPARγ (Homo sapiens, UniProt P37231)).

Consider the following illustrative entries.
1. Cc1oc(C2CCCCC2)nc1CCOc1ccc(CC(C)(Oc2ccc3c(c2)OCO3)C(=O)O)cc1 (stereo not shown) | 7.10
2. CCCC(=O)c1nc(NS(=O)(=O)c2ccc(Cl)cc2Cl)ccc1Sc1ccc(S(=O)(=O)C(C)C)cc1 | > 6.00
3. O=S(=O)(Nc1cc(Cl)cc(Oc2nc3ccc(Cl)cc3s2)c1)c1ccc(Cl)cc1Cl | > 6.00

*Q* What does the data say about its pIC50? Entry: Nc1cc(Cl)c(Oc2nc3ccc(Cl)cc3s2)c(Cl)c1
*A* > 5.00

*Q* What does the data say about its pIC50? Entry: Cc1oc(-c2ccc(-c3ccc[nH]3)cc2)nc1CCOc1ccc(OC(C)(C)C(=O)O)cc1
*A* 5.75

*Q* What does the data say about its pIC50? Entry: CCCOc1nc(NS(=O)(=O)c2ccc(C(F)(F)F)cc2Cl)ccc1Sc1ccc(S(=O)(=O)N2CCCCC2)cc1
*A* > 5.00

*Q* What does the data say about its pIC50? Entry: COC(=O)c1cccc2cc(Oc3c(Cl)cc(NS(=O)(=O)c4ccc(Cl)cc4Cl)cc3Cl)cnc12
*A* > 6.00

*Q* What does the data say about its pIC50? Entry: CS(=O)(=O)Nc1ccc2sc(Oc3c(Cl)cc(NS(=O)(=O)c4ccc(C(F)(F)F)cc4Cl)cc3Cl)nc2c1
*A* > 6.00

###

pIC50: −log10 of the molar value.
Literature survey of pIC50 (system: UniProt P37231).

1) Cc1nc(NS(=O)(=O)c2ccc(C(F)(F)F)cc2Cl)ncc1Sc1ccc(S(=O)(=O)N2CCCCC2)cc1 | > 5.00
2) Cc1nc(NS(=O)(=O)c2ccc(C(F)(F)F)cc2Cl)ncc1Sc1ccc2ccccc2c1 | > 5.00
3) CCOC(=O)c1cc(NS(=O)(=O)c2cc(Br)ccc2OC)ccc1Oc1cncc(Cl)c1 | 6.82
4) COC(=O)c1nc(NS(=O)(=O)c2ccc(Cl)cc2Cl)ccc1Sc1ccc(S(=O)(=O)N2CCOCC2)cc1 | > 6.00
5) Cc1cccc(OC(C)(Cc2ccc(OCCc3nc(-c4cccs4)oc3C)cc2)C(=O)O)c1 (stereo not drawn) | 7.08
6) Cc1oc(-c2cccs2)nc1CCOc1ccc(CC(C)(Oc2ccc(C(C)(C)C)cc2)C(=O)O)cc1 (stereo not drawn) | 7.17
7) CCCCc1cc(NS(=O)(=O)c2ccc(Cl)cc2Cl)nnc1Sc1ccc(S(=O)(=O)C2CCCC2)cc1 | > 6.00
8) CCCC(=O)c1nc(NS(=O)(=O)c2ccc(C(F)(F)F)cc2Cl)ccc1Sc1ccc(S(=O)(=O)N2CCCC2)cc1 | > 6.00

*Q* Give recorded pIC50 with UniProt P37231 for the following compound: O=C(O)c1cccc2cc(Oc3c(Cl)cc(NS(=O)(=O)c4ccc(Cl)cc4Cl)cc3Cl)cnc12
*A* > 6.00

*Q* Give recorded pIC50 with UniProt P37231 for the following compound: Cc1nc(NS(=O)(=O)c2ccc(Cl)cc2Cl)ncc1Sc1ccc(S(=O)(=O)N2CCCCC2)cc1
*A* > 5.00

###

Literature survey of IC50 (system: PPARγ (Homo sapiens)).

1) CCCOc1nc(NS(=O)(=O)c2ccc(Cl)cc2Cl)ncc1Sc1ccc(S(=O)(=O)N2CCCCC2)cc1 | < 1000 nM
2) Cc1ccc(OC(C)(Cc2ccc(OCCc3nc(-c4cccs4)oc3C)cc2)C(=O)O)cc1 (stereo not drawn) | 10 nM
3) Cc1nc(NS(=O)(=O)c2ccc(Cl)cc2Cl)ncc1Oc1ccc(S(=O)(=O)N2CCOCC2)cc1 | < 30000 nM
4) CCCCc1nc(NS(=O)(=O)c2ccc(C(F)(F)F)cc2Cl)ccc1Sc1ccc(S(=O)(=O)N2CCCCC2)cc1 | < 1000 nM
5) CS(=O)(=O)Nc1ccc2nc(Oc3ccc(NS(=O)(=O)c4ccc(C(F)(F)F)cc4Cl)cc3Cl)sc2c1 | < 1000 nM

*Q* What does the data say about its IC50? Entry: Cc1oc(-c2cccc(-c3ccccc3)c2)nc1CCOc1ccc(OC(C)(C)C(=O)O)c(CC2CCCCC2)c1
*A* 33 nM

*Q* What does the data say about its IC50? Entry: CCCC(=O)c1nc(NS(=O)(=O)c2ccc(C(F)(F)F)cc2Cl)ccc1Sc1ccc(S(=O)(=O)N(CC)CC)cc1
*A* < 1000 nM

*Q* What does the data say about its IC50? Entry: O=C(c1nc(NS(=O)(=O)c2ccc(Cl)cc2Cl)ccc1Sc1ccc(S(=O)(=O)N2CCCCC2)cc1)C1CC1
*A* < 1000 nM

*Q* What does the data say about its IC50? Entry: O=C(c1nc(NS(=O)(=O)c2ccc(Cl)cc2Cl)ccc1Sc1ccc(S(=O)(=O)N2CCOCC2)cc1)C1CC1
*A* < 1000 nM

*Q* What does the data say about its IC50? Entry: Cc1oc(C2CCCCC2)nc1CCOc1ccc(CC(C)(Oc2ccc(F)c(F)c2)C(=O)O)cc1 (stereo not drawn)
*A* 66 nM

*Q* What does the data say about its IC50? Entry: Cc1oc(-c2ccc(OC3CCCCC3)cc2)nc1CCOc1ccc(OC(C)(C)C(=O)O)cc1
*A* 627 nM

*Q* What does the data say about its IC50? Entry: CCCCc1cc(NS(=O)(=O)c2ccc(Cl)cc2Cl)nnc1Sc1ccc(S(=O)(=O)N2CCOCC2)cc1
*A* < 1000 nM

*Q* What does the data say about its IC50? Entry: Cc1oc(C2(C)CCCCC2)nc1CCOc1ccc(C[C@](C)(Oc2ccc(F)cc2)C(=O)O)cc1
*A* 65 nM

*Q* What does the data say about its IC50? Entry: CCCCc1cc(OC(C)(C)C(=O)O)ccc1OCCc1nc(-c2cccc(-c3ccccc3)c2)oc1C
*A* 12 nM

*Q* What does the data say about its IC50? Entry: COc1cccc2sc(Oc3cc(Cl)cc(NS(=O)(=O)c4ccc(Cl)cc4Cl)c3)nc12
*A* 1000 to 10000 nM

*Q* What does the data say about its IC50? Entry: Cc1oc(-c2cccc(-c3ccccc3)c2)nc1CCOc1ccc(CC(C)(Oc2ccc3c(c2)OCO3)C(=O)O)cc1 (stereo not drawn)
*A* 37 nM

*Q* What does the data say about its IC50? Entry: COc1ccc2nc(Oc3cc(Cl)cc(NS(=O)(=O)c4ccc(C(F)(F)F)cc4Cl)c3)sc2c1
*A* 1000 to 10000 nM

*Q* What does the data say about its IC50? Entry: COc1ccc(CCNC(=O)COc2ccc(C[C@H](OC)C(=O)O)cc2)cc1
*A* 52 nM

*Q* What does the data say about its IC50? Entry: Cc1cc(OCCc2nc(-c3ccccc3)oc2C)ccc1OC(C)(C)C(=O)O
*A* 239 nM

*Q* What does the data say about its IC50? Entry: CC(C)CNc1nc(NS(=O)(=O)c2ccc(Cl)cc2Cl)ncc1Sc1ccc(S(=O)(=O)N2CCCCC2)cc1
*A* < 1000 nM

*Q* What does the data say about its IC50? Entry: O=S(=O)(Nc1cc(Cl)c(Oc2nc3ccc(Cl)cc3s2)c(Cl)c1)c1ccc(C(F)(F)F)cc1Cl
*A* < 1000 nM

*Q* What does the data say about its IC50? Entry: O=S(=O)(Nc1cc(Cl)c(Cc2cc3ccccc3cn2)c(Cl)c1)c1ccc(C(F)(F)F)cc1Cl
*A* < 1000 nM

*Q* What does the data say about its IC50? Entry: CCCCc1nc(NS(=O)(=O)c2ccc(Cl)cc2Cl)ncc1Sc1ccc(S(=O)(=O)N2CCCCC2)cc1
*A* < 1000 nM

*Q* What does the data say about its IC50? Entry: Cc1nc(NS(=O)(=O)c2ccc(Cl)cc2Cl)ccc1Sc1ccc(S(=O)(=O)N2CCCCC2)cc1
*A* < 1000 nM

*Q* What does the data say about its IC50? Entry: CCC(CC)Nc1nc(NS(=O)(=O)c2ccc(Cl)cc2Cl)ncc1Sc1ccc(S(=O)(=O)N2CCCCC2)cc1
*A* < 30000 nM

*Q* What does the data say about its IC50? Entry: CCCCCOC(=O)c1cc(NS(=O)(=O)c2ccc(Cl)cc2Cl)ncc1Sc1ccc(S(=O)(=O)N2CCCCC2)cc1
*A* < 1000 nM

###

Literature survey of IC50 (system: PPARγ (Homo sapiens)).

Consider the following illustrative entries.
1. O=C(O)c1nc(NS(=O)(=O)c2ccc(Cl)cc2Cl)ccc1Sc1ccc(S(=O)(=O)N2CCCCC2)cc1 | < 10 µM
2. CC(=O)Oc1ccc2c(c1)[C@@]1(C)CCC[C@](C)(C(=O)OC(=O)[C@@]3(C)CCC[C@]4(C)c5cc(OC(C)=O)ccc5CC[C@@H]34)[C@@H]1CC2 | > 10 µM
3. O=S(=O)(Nc1ccc(Sc2ccc(S(=O)(=O)N3CCOCC3)cc2)c(C(F)(F)F)n1)c1ccc(Cl)cc1Cl | < 10 µM
4. Cc1oc(-c2ccc(-c3ccccc3)cc2)nc1CCOc1ccc(OC(C)(C)C(=O)O)c(CC2CCCCC2)c1 | 0.081 µM
5. O=C(c1nc(NS(=O)(=O)c2ccc(C(F)(F)F)cc2Cl)ccc1Sc1ccc(S(=O)(=O)C2CCCC2)cc1)C1CC1 | < 1 µM

*Q* Give recorded IC50 with PPARγ (Homo sapiens) for the following compound: O=S(=O)(Nc1cc(Cl)c(Cc2cnc3ccccc3c2)c(Cl)c1)c1ccc(Cl)cc1Cl
*A* < 1 µM

*Q* Give recorded IC50 with PPARγ (Homo sapiens) for the following compound: O=S(=O)(Nc1cc(Cl)cc(Oc2nc3c(Cl)cccc3s2)c1)c1ccc(C(F)(F)F)cc1Cl
*A* 10 to 30 µM
